Entry source: paper PMC10397247

- targetDesc: T1, 4H2134-bA
- T1 chain: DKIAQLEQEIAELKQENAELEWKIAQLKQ
- experimentalProtocol: two-hybrid library CCNG1;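 further: natural log of median RNA to DNA barcode read ratio; higher means stronger binding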
interaction score listing for selected binders.

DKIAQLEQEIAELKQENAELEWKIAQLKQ [4H2134-bA]	1.43
DENAQLEQKIAELKQKNAELKWKIAQLKQ [4H1406-bA]	1.62
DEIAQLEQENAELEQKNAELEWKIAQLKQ [4H182-bA]	-0.497

# ---- query binder ----
The binder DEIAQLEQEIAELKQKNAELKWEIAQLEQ [4H121-bA] showed interaction score equal to 1.92
